Please go through the items and note down their 8OG:A repair function score.
B1: library; numbered along this chain (parent)
chain: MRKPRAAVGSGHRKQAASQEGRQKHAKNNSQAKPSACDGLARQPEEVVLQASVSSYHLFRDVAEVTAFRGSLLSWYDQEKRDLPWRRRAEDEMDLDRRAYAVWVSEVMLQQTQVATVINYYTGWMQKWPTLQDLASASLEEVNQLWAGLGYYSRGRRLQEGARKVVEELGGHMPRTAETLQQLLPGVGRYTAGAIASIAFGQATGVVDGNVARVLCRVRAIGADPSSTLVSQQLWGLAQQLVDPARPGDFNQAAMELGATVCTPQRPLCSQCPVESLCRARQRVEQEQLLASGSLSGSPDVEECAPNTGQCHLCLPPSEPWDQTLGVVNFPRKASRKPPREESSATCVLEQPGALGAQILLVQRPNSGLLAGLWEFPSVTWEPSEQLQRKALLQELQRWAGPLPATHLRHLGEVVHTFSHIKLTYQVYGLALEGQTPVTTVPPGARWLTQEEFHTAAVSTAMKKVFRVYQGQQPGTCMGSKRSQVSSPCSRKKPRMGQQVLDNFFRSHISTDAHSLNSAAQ

variants of: B1; assay: 8OG:A repair function score (normalized; synonymous = 0, nonsense = -1) (normalized log-likelihood score); higher = more repair activity (WT-like); details: with 8OG:A DNA repair reporter (GFP) in HEK-293 MUTYH KO cells;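 note: cells sorted at 72 h after reporter transfection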
Would you mind answering with just the numeric figure?

Which measured 8OG:A repair function score value corresponds to A513Y ?
-0.00892

Also need N517D , thanks.
0.0077

Request: L432V
-0.118

Lookup R60M
0.00468

Similarly, V458A ?
-0.667

Query N329V next
-0.246

Now try P174H .
-0.972

Please answer likewise for C272G
-1.24
